Data origin, for the record: patent US8889881B2

Below, each entry is listed alongside its reported melting point.

{"compound": "Oc1ccc(-c2nc3cc(Cl)ccc3s2)c(O)c1", "measurement": "277.9 to 280.1 °C"}
{"compound": "CCOc1cc(C2N[C@H](C(=O)O)CS2)ccc1O (mixture of isomers)", "measurement": "174.3 to 175.9 °C"}
{"compound": "Oc1ccc(-c2nc3cc(Cl)ccc3s2)cc1O", "measurement": "127.4 to 129.1 °C"}

Query: melting point; subject: Oc1cc(O)cc(-c2nc3cc(C(F)(F)F)ccc3s2)c1 256.7 to 260.6 °C

And the next one, CCOc1cc(-c2nc3cc(C(=O)O)ccc3[nH]2)ccc1O ? > 300 °C

And the next one, Oc1ccccc1-c1nc2cc(C(F)(F)F)ccc2s1 ? 175 to 176.5 °C

And the next one, COc1cc(-c2nc3cc(Cl)ccc3s2)cc(OC)c1OC ? 159.4 to 160 °C

And the next one, COC(=O)[C@@H]1CSC(c2ccc(O)c(O)c2)N1 (mixture of isomers) ? 116 to 118 °C

---

Below, each entry is listed alongside its reported melting point.

Below, each entry is followed by its recorded melting point result.
{"compound": "COc1ccc(-c2nc3cc(Cl)ccc3s2)cc1OC", "measurement": "165.2 to 167.1 °C"}
{"compound": "COc1cc(C2N[C@H](C(=O)O)CS2)cc(OC)c1O (mixture of isomers)", "measurement": "139.6 to 141 °C"}

Query: melting point; subject: COc1cc(-c2nc3ccccc3s2)cc(OC)c1O 153.5 to 156.1 °C

And the next one, CCOc1cc(-c2nc3cc(C(F)(F)F)ccc3s2)ccc1O ? 117 to 117.8 °C

And the next one, O=C(O)[C@@H]1CSC(c2ccc(O)cc2)N1 (mixture of isomers) ? 161.8 to 164.4 °C

And the next one, Oc1ccc(-c2nc3cc(Cl)ccc3s2)cc1 [Compound 82, 4-(5-chlorobenzo[d]thiazol-2-yl)phenol] ? 259.3 to 263.1 °C

And the next one, COc1ccc(-c2nc3cc(C(=O)O)ccc3[nH]2)cc1 ? 264.7 to 265.4 °C

And the next one, COc1cc(-c2nc3cc(C(F)(F)F)ccc3s2)ccc1O ? 155.7 to 159.9 °C

And the next one, Clc1ccc2sc(-c3ccc(OCc4ccccc4)cc3)nc2c1 ? 142.7 to 143.3 °C

And the next one, Oc1ccc(-c2nc3ccccc3[nH]2)cc1O ? 268.5 to 269.8 °C

And the next one, COC(=O)c1csc(-c2ccc(OC(C)=O)c(OC(C)=O)c2)n1 ? 137 to 138 °C

---

Below, each entry is listed alongside its reported melting point.

{"molecule": "COc1ccc(-c2nc3cc(Cl)ccc3s2)c(OC)c1", "melting point": "138.6 to 140.3 °C"}
{"molecule": "COc1ccc(-c2nc3cc(C(=O)O)ccc3[nH]2)cc1O", "melting point": "246.6 to 247.7 °C"}
{"molecule": "COc1cc(-c2nc3cc(C(F)(F)F)ccc3s2)cc(OC)c1O", "melting point": "220.6 to 222.6 °C"}
{"molecule": "O=C(O)[C@@H]1CSC(c2ccc(O)c(O)c2)=N1", "melting point": "178 to 179 °C"}
{"molecule": "COc1cc(-c2nc3cc(C(F)(F)F)ccc3s2)cc(OC)c1OC", "melting point": "132.5 to 134 °C"}

Query: melting point; subject: FC(F)(F)c1ccc2sc(-c3cccc(OCc4ccccc4)c3)nc2c1 93.8 to 95.1 °C

And the next one, COc1cc(-c2nc3ccccc3[nH]2)cc(OC)c1OC ? 257 to 257.7 °C

And the next one, COc1cc(-c2nc3cc(C(=O)O)ccc3[nH]2)ccc1O ? > 300 °C

And the next one, FC(F)(F)c1ccc2sc(-c3ccc(OCc4ccccc4)cc3)nc2c1 ? 194.3 to 195.1 °C

And the next one, COc1cc(C2N[C@H](C(=O)O)CS2)cc(OC)c1OC (mixture of isomers) ? 197 to 199.7 °C
